B1: ZBED3 (parent)
chain: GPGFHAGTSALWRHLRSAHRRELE

Variants of: B1
method: protein stability index of a GFP-peptide fusion (GPS, HEK-293T) (PSI 1-6); higher = more stable;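 further: lentivirally expressed fusions sorted by FACS into six bins by GFP to DsRed ratio, PSI derived from sequencing read proportions per bin multiplied by bin number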
experimental-setup: c terminus: a fixed tail appended
property-label: protein stability index
Lab note: record the figure alone, no unit after it.

Some entries whose results are on file:
alteration	protein stability index
S17T	2.65
F4I	2.99
W12Y	2.63
T8N	2.91
E22A	2.76
L15K	3.15
R20N	1.4
G1M	3.18

Req: In one line, give reported protein stability index of the entry `G3A` .
Resp: 3.22

Req: In one line, give reported protein stability index of the entry `L23A` .
Resp: 2.83

Req: In one line, give reported protein stability index of the entry `S9T` .
Resp: 3.06
